test system: SF-295 CNS; assay: NCI tumour cell line growth inhibition, 48 h
We begin with a simple list: items and their reported TGI.
experimental-readout: TGI

{"molecule": "CC(O)(CCCCCl)c1nc2ccccc2s1 (centres undefined)", "system-tested": "SF-295 CNS", "result": "> 100 µM"}
{"molecule": "COc1ccccc1-n1c(C)nc2ccccc2c1=O", "system-tested": "SF-295 CNS", "result": "> 100 µM"}
{"molecule": "Cc1c2nc3ccccc3sc-2cc(=O)c1C", "system-tested": "SF-295 CNS", "result": "> 100 µM"}
{"molecule": "COc1ccc(CN2C(=O)C(Cl)=C(Nc3cccc(O)c3)C2=O)cc1", "system-tested": "SF-295 CNS", "result": "31.2 µM"}
{"molecule": "Nc1ncnc2nc(N3CCN(CCO)CC3)[nH]c12", "system-tested": "SF-295 CNS", "result": "> 100 µM"}
{"molecule": "COc1cc(C(C)c2ccc3c(ccn3C)c2)cc(OC)c1OC (centres undefined)", "system-tested": "SF-295 CNS", "result": "32.5 µM"}
{"molecule": "COC(=O)C(=O)C(C(=O)OC)C(=O)C(=O)Nc1ccccc1C(N)=O (centres undefined)", "system-tested": "SF-295 CNS", "result": "> 100 µM"}
{"molecule": "C/C=C\\C(CC(=O)O)CN1CCC2=C(C1)C(S(=O)(=O)C(F)(F)F)c1ccccc12 (centres undefined)", "system-tested": "SF-295 CNS", "result": "> 100 µM"}
{"molecule": "COc1cccc(CC(C)N)c1 (centres undefined)", "system-tested": "SF-295 CNS", "result": "> 100 µM"}
{"molecule": "CCCCn1c(C)c(C(=O)CC)c(C(=O)NCCN2CCN(c3ccccc3Cl)CC2)c1C", "system-tested": "SF-295 CNS", "result": "34.6 µM"}
{"molecule": "CC(C)(C)N/N=C(\\C(=O)Nc1ccc([N+](=O)[O-])cc1[N+](=O)[O-])c1nc2ccc([N+](=O)[O-])cc2[nH]c1=O", "system-tested": "SF-295 CNS", "result": "> 100 µM"}
{"molecule": "CN1CCN(CCCCN2c3ccccc3Sc3ccc(C(=O)c4ccccc4)cc32)CC1", "system-tested": "SF-295 CNS", "result": "3.45 µM"}
{"molecule": "Oc1ccc(-c2cn3ccsc3n2)cc1O", "system-tested": "SF-295 CNS", "result": "> 100 µM"}
{"molecule": "C/C(CC(=O)Nc1ccc(C)c(C)c1)=N\\NC(N)=S", "system-tested": "SF-295 CNS", "result": "> 100 µM"}
{"molecule": "Clc1ccc(C2ON=C(c3ccccc3)N2C23CC4CC(CC(C4)C2)C3)c(Cl)c1 (centres undefined)", "system-tested": "SF-295 CNS", "result": "> 10 µM"}
{"molecule": "CN(C)c1ccc(/C=N/N=C2\\C(=O)Nc3c(Cl)cc(Cl)cc32)cc1", "system-tested": "SF-295 CNS", "result": "> 100 µM"}
{"molecule": "c1ccc(CSc2nnc3c4c5c(sc4nc(-c4cccnc4)n23)CCCCCC5)cc1", "system-tested": "SF-295 CNS", "result": "11.8 µM"}
{"molecule": "O=[N+]([O-])c1nccn1COCCI", "system-tested": "SF-295 CNS", "result": "> 100 µM"}
{"molecule": "O=C1CCC(c2nc3cc(Cl)ccc3o2)C(=O)N1 (centres undefined)", "system-tested": "SF-295 CNS", "result": "> 100 µM"}
